Value source: ChEMBL document CHEMBL3885861

Give AST for every item shown.
# Organism: Rattus norvegicus
# Test summary: Open TG-GATES - Regimen: Daily Repeat
# Type: toxicity, organism-based, Sprague-Dawley
# Set-up: regimen Daily Repeat, gender Male, age 6 weeks
# Experimental setup: in vivo, po, 0 mg/kg, […], tissue Plasma, route gavage, dose level Control, time 14 day
Numbers only, in IU/L.

1) CC(N)=O [ACETAMIDE]	64.6
2) CC[C@@H](CO)NCCN[C@@H](CC)CO	72.6
3) CC(CCc1ccccc1)NCC(O)c1ccc(O)c(C(N)=O)c1 (stereo not drawn)	72.4
4) CCN(CC)N=O	64.2
5) CC(=O)N1CCN(c2ccc(OCC3COC(Cn4ccnc4)(c4ccc(Cl)cc4Cl)O3)cc2)CC1 (stereo not drawn)	71.2

# batch size: 3; output AST per entry
1. O=C(O)COc1nn(Cc2ccccc2)c2ccccc12
2. CC(C)Cc1ccc(C(C)C(=O)O)cc1 (stereo not drawn)
3. CC(=O)Nc1ccc2c(c1)Cc1ccccc1-2

[out]
61.2
65.8
64.4

----------
# Organism: Rattus norvegicus
# Test summary: Open TG-GATES - Regimen: Daily Repeat
# Format: toxicity, organism-based, Sprague-Dawley
# Set-up: regimen Daily Repeat, gender Male, age 6 weeks
# Experimental setup: in vivo, po, 0 mg/kg, […], tissue Plasma, route gavage, dose level Control, time 7 day
Give BUN for every item shown.
Numbers only, in mg/dL.

1) CC(=O)Nc1ccc2c(c1)Cc1ccccc1-2 [2-ACETYLAMINOFLUORENE]	13.6
2) O=C(O)COc1nn(Cc2ccccc2)c2ccccc12 [BENDAZAC]	19.6
3) CC(N)=O [ACETAMIDE]	16.1
4) CC(C)Cc1ccc(C(C)C(=O)O)cc1 (stereo not drawn) [IBUPROFEN]	18.6
5) CC[C@@H](CO)NCCN[C@@H](CC)CO [ETHAMBUTOL]	17.8
6) CCN(CC)N=O [N-NITROSODIETHYLAMINE]	15
7) CC(CCc1ccccc1)NCC(O)c1ccc(O)c(C(N)=O)c1 (stereo not drawn) [LABETALOL]	14.2

Could you now look at the following molecule, please?
[in] Please supply the value of reported BUN for the item CC(=O)N1CCN(c2ccc(OCC3COC(Cn4ccnc4)(c4ccc(Cl)cc4Cl)O3)cc2)CC1 (stereo not drawn) [KETOCONAZOLE]
[out] 19

----------
# Species on record: Rattus norvegicus
# Test summary: Open TG-GATES - Regimen: Daily Repeat
# Type: toxicity, organism-based, Sprague-Dawley
# Design: regimen Daily Repeat, gender Male, age 6 weeks
# Experimental setup: in vivo, po, 0 mg/kg, […], tissue Plasma, route gavage, dose level Control, time 28 day
Observation type: K (meq/L)
Answers are plain numbers, in meq/L.

# annotated cases, reported K shown
1. CC(C)Cc1ccc(C(C)C(=O)O)cc1 (configuration not stated) [IBUPROFEN]	4.1
2. CCN(CC)N=O [N-NITROSODIETHYLAMINE]	3.7
3. CC(CCc1ccccc1)NCC(O)c1ccc(O)c(C(N)=O)c1 (configuration not stated) [LABETALOL]	3.6
4. CC(N)=O [ACETAMIDE]	4.1

# batch size: 3; output K per entry
1. O=C(O)COc1nn(Cc2ccccc2)c2ccccc12 [BENDAZAC]
2. CC[C@@H](CO)NCCN[C@@H](CC)CO [ETHAMBUTOL]
3. CC(=O)Nc1ccc2c(c1)Cc1ccccc1-2 [2-ACETYLAMINOFLUORENE]

[out]
1. 4.4
2. 4.1
3. 3.8

----------
# Organism: Rattus norvegicus
# Test summary: Open TG-GATES - Regimen: Daily Repeat
# Assay type: toxicity, organism-based, Sprague-Dawley
# Set-up: regimen Daily Repeat, gender Male, age 6 weeks
# Experimental setup: in vivo, po, 0 mg/kg, 72 h, tissue Blood, route gavage, dose level Control, time 3 day
Observation type: Ht
Please answer using the number first and the unit second.

# annotated cases, reported Ht shown
1) CC(CCc1ccccc1)NCC(O)c1ccc(O)c(C(N)=O)c1 (stereo not drawn)	38.9%
2) CCN(CC)N=O	39.7%

[in] Please supply the value of reported Ht for the item `O=C(O)COc1nn(Cc2ccccc2)c2ccccc12`
[out] 42.6%

----------
Give CRE for every item shown.
# Species: Rattus norvegicus
# Test summary: Open TG-GATES - Regimen: Single
# Format: toxicity, organism-based, Sprague-Dawley
# Set-up: regimen Single, gender Male, age 6 weeks
# Experimental setup: in vivo, po, 0 mg/kg, 9 h, tissue Plasma, route gavage, dose level Control
One number for each entry, in mg/dL.

# annotated cases, reported CRE shown
1. CCN(CC)N=O	0.4
2. CC(=O)Nc1ccc2c(c1)Cc1ccccc1-2	0.4
3. O=C(O)COc1nn(Cc2ccccc2)c2ccccc12	0.6
4. CC[C@@H](CO)NCCN[C@@H](CC)CO	0.2
5. CC(C)Cc1ccc(C(C)C(=O)O)cc1 (configuration not stated)	0.2
6. CC(=O)N1CCN(c2ccc(OCC3COC(Cn4ccnc4)(c4ccc(Cl)cc4Cl)O3)cc2)CC1 (configuration not stated)	0.2

Could you now look at the following molecule, please?
[in] Please supply the value of reported CRE for the item CC(CCc1ccccc1)NCC(O)c1ccc(O)c(C(N)=O)c1 (configuration not stated)
[out] 0.2

----------
# Species on record: Rattus norvegicus
# Test summary: Open TG-GATES - Regimen: Daily Repeat
# Format: toxicity, organism-based, Sprague-Dawley
# Set-up: regimen Daily Repeat, gender Male, age 6 weeks
# Experimental setup: in vivo, po, 0 mg/kg, […], tissue Blood, route gavage, dose level Control, time 28 day
Observation type: MCV (fL)
Give bare numbers, in fL.

1. CCN(CC)N=O	55.8
2. CC[C@@H](CO)NCCN[C@@H](CC)CO	56
3. O=C(O)COc1nn(Cc2ccccc2)c2ccccc12	58.8
4. CC(N)=O [ACETAMIDE]	56.3
5. CC(CCc1ccccc1)NCC(O)c1ccc(O)c(C(N)=O)c1 (stereo not drawn)	58.3

# batch size: 2; output MCV per entry
1. CC(C)Cc1ccc(C(C)C(=O)O)cc1 (stereo not drawn)
2. CC(=O)N1CCN(c2ccc(OCC3COC(Cn4ccnc4)(c4ccc(Cl)cc4Cl)O3)cc2)CC1 (stereo not drawn)

[out]
55.9
55.8

[in] Please supply the value of reported MCV for the item `CC(=O)Nc1ccc2c(c1)Cc1ccccc1-2`
[out] 57.1

----------
# Organism: Rattus norvegicus
# Test summary: Open TG-GATES - Regimen: Daily Repeat
# Type: toxicity, organism-based, Sprague-Dawley
# Design: regimen Daily Repeat, gender Male, age 6 weeks
# Experimental setup: in vivo, po, 0 mg/kg, 72 h, tissue Blood, route gavage, dose level Control, time 3 day
Give APTT for every item shown.
Numbers only, in s.

# annotated cases, reported APTT shown
1) CC(C)Cc1ccc(C(C)C(=O)O)cc1 (configuration not stated)	20.4
2) O=C(O)COc1nn(Cc2ccccc2)c2ccccc12	17.5
3) CCN(CC)N=O	18.3
4) CC(=O)Nc1ccc2c(c1)Cc1ccccc1-2	19.9
5) CC(CCc1ccccc1)NCC(O)c1ccc(O)c(C(N)=O)c1 (configuration not stated)	16.5

# batch size: 2; output APTT per entry
1. CC(=O)N1CCN(c2ccc(OCC3COC(Cn4ccnc4)(c4ccc(Cl)cc4Cl)O3)cc2)CC1 (configuration not stated)
2. CC[C@@H](CO)NCCN[C@@H](CC)CO

[out]
1. 20.9
2. 21.9

----------
# Organism: Rattus norvegicus
# Test summary: Open TG-GATES - Regimen: Daily Repeat
# Type: toxicity, organism-based, Sprague-Dawley
# Set-up: regimen Daily Repeat, gender Male, age 6 weeks
# Experimental setup: in vivo, po, 0 mg/kg, 72 h, tissue Blood, route gavage, dose level Control, time 3 day
Rule: WBC of 100 x10_2/uL or more gives yes; anything lower gives no.

Recorded results for 4 compounds are shown here.
1) CC(=O)Nc1ccc2c(c1)Cc1ccccc1-2	yes
2) CC[C@@H](CO)NCCN[C@@H](CC)CO	yes
3) CC(C)Cc1ccc(C(C)C(=O)O)cc1 (stereo not drawn)	yes
4) O=C(O)COc1nn(Cc2ccccc2)c2ccccc12	no

[in] # check: WBC of CC(CCc1ccccc1)NCC(O)c1ccc(O)c(C(N)=O)c1 (stereo not drawn) is greater than or equal to 100 x10_2/uL
[out] yes

[in] # check: WBC of CC(=O)N1CCN(c2ccc(OCC3COC(Cn4ccnc4)(c4ccc(Cl)cc4Cl)O3)cc2)CC1 (stereo not drawn) is greater than or equal to 100 x10_2/uL
[out] yes

[in] # check: WBC of `CCN(CC)N=O` is greater than or equal to 100 x10_2/uL
[out] no

[in] # check: WBC of CC(N)=O [ACETAMIDE] is greater than or equal to 100 x10_2/uL
[out] yes

----------
# Species: Rattus norvegicus
# Test summary: Open TG-GATES - Regimen: Daily Repeat
# Format: toxicity, organism-based, Sprague-Dawley
# Design: regimen Daily Repeat, gender Male, age 6 weeks
# Experimental setup: in vivo, po, 0 mg/kg, […], tissue Blood, route gavage, dose level Control, time 28 day
Observation type: RBC (x10_4/ul)
One number for each entry, in x10_4/ul.

# annotated cases, reported RBC shown
1) O=C(O)COc1nn(Cc2ccccc2)c2ccccc12	779.8
2) CC(N)=O [ACETAMIDE]	729.2
3) CC(=O)Nc1ccc2c(c1)Cc1ccccc1-2	752.2
4) CC(=O)N1CCN(c2ccc(OCC3COC(Cn4ccnc4)(c4ccc(Cl)cc4Cl)O3)cc2)CC1 (stereo not drawn)	779.8
5) CC[C@@H](CO)NCCN[C@@H](CC)CO	761.2
6) CC(C)Cc1ccc(C(C)C(=O)O)cc1 (stereo not drawn)	768.2
7) CC(CCc1ccccc1)NCC(O)c1ccc(O)c(C(N)=O)c1 (stereo not drawn)	748.2

Could you now look at the following molecule, please?
[in] Please supply the value of reported RBC for the item `CCN(CC)N=O`
[out] 758.6
